assay: Cell viability (MTT assay) of HepaRG cells with and without transporter inhibitors; assay type: cell-based, human; conditions: human, HepaRG cells, 10 µM; mean of 6 replicates; no inhibitor; read-out: viability, MW [%]
value-kind: viability at 24 h, 10 µM (%)
Entry rule: numbers only, all in %.

Output viability at 24 h, 10 µM of C/C=C1/C[C@@H](C)[C@@](C)(O)C(=O)OCC2=CCN3CC[C@@H](OC1=O)[C@@H]23 84.6

====

system: HepaRG cells; test: Time-dependent PA depletion and PANO formation in cell culture medium of HepaRG cells at 37 °C and 4 °C (LC-MS/MS); conditions: HepaRG, 37 °C, 700 nM parent PA, up to 24 h
value-kind: PANO formation in cell culture medium

C/C=C1/C[C@@H](C)[C@](O)(CO)C(=O)OCC2=CC[N@@+]3([O-])CC[C@@H](OC1=O)[C@@H]23 [retrorsine N-oxide]: increased with time
C/C=C1/C[C@@H](C)[C@@](C)(O)C(=O)OCC2=CC[N+]3([O-])CC[C@@H](OC1=O)[C@@H]23 (stereo partly shown) [senecionine N-oxide]: increased with time
C/C=C(/C)C(=O)O[C@@H]1CC[N+]2([O-])CC=C(COC(=O)[C@@](O)([C@H](C)O)C(C)(C)O)[C@H]12 (stereo partly shown) [echimidine N-oxide]: increased with time

====

test system: HepaRG cells; assay: Time-dependent PA depletion and PANO formation in cell culture medium of HepaRG cells at 37 °C and 4 °C (LC-MS/MS); details: warm, 2h
value-kind: PA in medium, Mean [%] (%)
Entry rule: numbers only, all in %.

Would you please look over these solved cases?
C/C=C1/C[C@@H](C)[C@@](C)(O)C(=O)OC/C2=C/CN(C)CC[C@@H](OC1=O)C2=O [Senkirkine, senkirkine]: 96.897
C/C=C(/C)C(=O)O[C@H]1CCN2CC=C(COC(=O)[C@@](O)([C@@H](C)O)C(C)(C)O)[C@H]12 [Heliosupine, heliosupine]: 66.3099
C/C=C(/C)C(=O)O[C@@H]1CCN2CC=C(COC(=O)[C@@](O)([C@H](C)O)C(C)(C)O)[C@H]12 [Echimidine, echimidine]: 80.9264

Now for a further molecule.
Output PA in medium, Mean [%] of CC(C)[C@](O)(C(=O)OCC1=CCN2CC[C@@H](O)[C@@H]12)[C@@H](C)O [Lycopsamine, lycopsamine] 96.1576
